The values you see were collected from the supplement of paper PMC10567573.

B1: SCARA5 (parent)
chain: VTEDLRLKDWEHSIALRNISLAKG

variants of: B1; test: protein stability index of a GFP-peptide fusion (GPS, HEK-293T) (PSI 1-6); higher = more stable; conditions: c terminus: a fixed tail appended;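 also: lentivirally expressed fusions sorted by FACS into six bins by GFP to DsRed ratio, PSI derived from sequencing read proportions per bin multiplied by bin number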
REPORTED_ENDPOINT: protein stability index
Answer with a bare number; do not write a unit.

>  <SEQ_TEXT>
VTEDLRLKDWEHSIALRNISLAKP [G24P]

>  <protein stability index>
3.09

$$$$
>  <SEQ_TEXT>
VTEDKRLKDWEHSIALRNISLAKG [L5K]

>  <protein stability index>
4.14

$$$$
>  <SEQ_TEXT>
VTEDLRLKDWEHSIALRNISLAKQ [G24Q]

>  <protein stability index>
3.49

$$$$
>  <SEQ_TEXT>
VTEDLRLKDWEHSIALRMISLAKG [N18M]

>  <protein stability index>
1.81

$$$$
>  <SEQ_TEXT>
VTEDLRLKDWEHSIALRNISLIKG [A22I]

>  <protein stability index>
3.37

$$$$

Inquiry: Item VTEDLRLKSWEHSIALRNISLAKG [D9S] has what recorded protein stability index?
Reply text: 3.17

Inquiry: Fill in: protein stability index of VTEDLRLKDWEHSIALRCISLAKG [N18C] is ___
Reply text: 2.17

Inquiry: Give the measured protein stability index of VTEDLRLKDWEHSIALRNISLAKR [G24R] .
Reply text: 3.46
